system: expanded OPCs; test: cells; conditions: alamarBlue viability of expanded OPCs, compound at 0.1 µM, relative to DMSO control
property-label: 0.1 µM (% DMSO)
Answers are plain numbers, in % DMSO.

Sample records with 0.1 µM (% DMSO):
[
  {
    "compound": "CO[C@H]1/C=C/O[C@@]2(C)Oc3c(C)c(O)c4c(O)c(c(/C=N/N5CCN(C)CC5)c(O)c4c3C2=O)NC(=O)/C(C)=C\\C=C\\[C@H](C)[C@H](O)[C@@H](C)[C@@H](O)[C@@H](C)[C@H](OC(C)=O)[C@@H]1C",
    "unit-string": "% DMSO",
    "0.1 µM (% DMSO)": 91.7
  },
  {
    "compound": "CN(C)[C@@H]1C(O)=C(C(N)=O)C(=O)[C@@]2(O)C(O)=C3C(=O)c4c(O)cccc4C[C@H]3C[C@@H]12",
    "unit-string": "% DMSO",
    "0.1 µM (% DMSO)": 88.7
  },
  {
    "compound": "CC(=O)S[C@@H]1CC2=CC(=O)CC[C@]2(C)[C@H]2CC[C@@]3(C)[C@@H](CC[C@@]34CCC(=O)O4)[C@H]12",
    "unit-string": "% DMSO",
    "0.1 µM (% DMSO)": 88.4
  }
]

Kindly give each listed record's 0.1 µM (% DMSO).
1. NS(=O)(=O)c1cc(C2(O)NC(=O)c3ccccc32)ccc1Cl (stereo not drawn)
2. Cc1cnc(C(=O)NCCc2ccc(S(=O)(=O)NC(=O)NC3CCCCC3)cc2)cn1 [Glipizide]
3. Cn1c(=O)c2[nH]cnc2n(C)c1=O

**A:**
1. 92.5
2. 88.0
3. 91.7
